# TEST_TARGET: Human T-type calcium channel (Cav 3.2) (Homo sapiens)
# Construct: Edward Perez-Reyes, University of Virginia, USA
# Sequence (O95180 whole entry): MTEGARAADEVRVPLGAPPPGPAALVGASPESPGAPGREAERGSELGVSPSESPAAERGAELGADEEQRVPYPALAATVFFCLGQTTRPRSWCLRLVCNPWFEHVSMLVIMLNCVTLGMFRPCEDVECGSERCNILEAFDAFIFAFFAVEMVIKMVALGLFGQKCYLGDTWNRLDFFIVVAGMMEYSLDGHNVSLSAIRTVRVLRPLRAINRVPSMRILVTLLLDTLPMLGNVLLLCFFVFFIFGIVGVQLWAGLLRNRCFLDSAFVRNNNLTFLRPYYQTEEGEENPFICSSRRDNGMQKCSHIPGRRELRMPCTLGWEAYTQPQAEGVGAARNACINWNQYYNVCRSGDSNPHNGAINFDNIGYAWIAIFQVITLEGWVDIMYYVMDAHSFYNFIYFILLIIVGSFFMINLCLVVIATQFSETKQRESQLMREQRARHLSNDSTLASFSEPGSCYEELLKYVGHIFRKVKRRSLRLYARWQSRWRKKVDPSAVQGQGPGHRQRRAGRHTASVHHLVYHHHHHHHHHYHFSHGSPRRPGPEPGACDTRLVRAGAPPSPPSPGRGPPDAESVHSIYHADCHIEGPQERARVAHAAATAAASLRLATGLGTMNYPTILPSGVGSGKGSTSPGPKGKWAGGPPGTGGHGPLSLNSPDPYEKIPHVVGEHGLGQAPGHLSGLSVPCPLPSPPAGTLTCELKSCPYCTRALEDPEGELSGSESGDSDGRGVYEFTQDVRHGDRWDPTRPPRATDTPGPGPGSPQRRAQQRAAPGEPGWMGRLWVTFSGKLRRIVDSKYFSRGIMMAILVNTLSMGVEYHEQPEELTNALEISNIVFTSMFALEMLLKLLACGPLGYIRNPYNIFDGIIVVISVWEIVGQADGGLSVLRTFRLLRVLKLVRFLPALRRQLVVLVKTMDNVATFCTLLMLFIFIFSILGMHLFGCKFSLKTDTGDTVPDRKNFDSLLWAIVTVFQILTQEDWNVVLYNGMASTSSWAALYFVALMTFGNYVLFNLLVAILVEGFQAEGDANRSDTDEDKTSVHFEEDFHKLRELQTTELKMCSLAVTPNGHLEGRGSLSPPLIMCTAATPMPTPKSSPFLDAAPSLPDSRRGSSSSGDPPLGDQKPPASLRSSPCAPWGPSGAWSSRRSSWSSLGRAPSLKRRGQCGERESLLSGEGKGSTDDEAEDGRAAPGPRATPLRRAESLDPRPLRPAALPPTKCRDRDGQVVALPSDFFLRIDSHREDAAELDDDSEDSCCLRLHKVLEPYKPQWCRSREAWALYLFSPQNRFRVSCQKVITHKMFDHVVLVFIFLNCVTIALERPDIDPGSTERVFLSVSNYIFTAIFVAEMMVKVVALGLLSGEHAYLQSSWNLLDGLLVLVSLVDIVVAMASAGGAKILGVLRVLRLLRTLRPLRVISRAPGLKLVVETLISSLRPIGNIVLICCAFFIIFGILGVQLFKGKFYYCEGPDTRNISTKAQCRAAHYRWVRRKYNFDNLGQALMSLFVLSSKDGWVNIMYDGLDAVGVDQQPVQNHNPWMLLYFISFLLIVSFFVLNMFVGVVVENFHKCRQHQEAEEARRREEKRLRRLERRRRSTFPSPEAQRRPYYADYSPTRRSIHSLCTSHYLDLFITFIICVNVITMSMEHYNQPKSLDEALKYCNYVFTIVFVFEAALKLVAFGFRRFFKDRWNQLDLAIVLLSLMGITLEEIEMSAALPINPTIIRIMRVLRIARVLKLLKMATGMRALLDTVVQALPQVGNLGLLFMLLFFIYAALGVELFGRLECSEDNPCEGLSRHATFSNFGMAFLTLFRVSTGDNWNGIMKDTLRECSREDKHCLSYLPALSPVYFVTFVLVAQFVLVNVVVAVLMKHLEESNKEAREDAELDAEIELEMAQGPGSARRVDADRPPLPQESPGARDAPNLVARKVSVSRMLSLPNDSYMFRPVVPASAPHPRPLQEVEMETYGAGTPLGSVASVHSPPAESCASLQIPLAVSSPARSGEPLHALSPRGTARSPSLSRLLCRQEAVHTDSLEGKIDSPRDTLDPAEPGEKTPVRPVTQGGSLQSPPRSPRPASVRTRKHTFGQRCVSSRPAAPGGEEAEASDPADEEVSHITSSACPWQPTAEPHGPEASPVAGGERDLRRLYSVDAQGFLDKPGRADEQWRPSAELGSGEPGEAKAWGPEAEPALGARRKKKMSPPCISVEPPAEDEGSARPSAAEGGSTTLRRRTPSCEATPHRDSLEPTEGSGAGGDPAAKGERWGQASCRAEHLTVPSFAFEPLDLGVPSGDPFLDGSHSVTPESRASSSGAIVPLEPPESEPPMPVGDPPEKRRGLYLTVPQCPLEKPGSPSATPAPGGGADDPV
# ASSAY_DETAILS: Calcium influx inhibition assay
# CONDITION_PARAMETERS: T-type calcium channel inhibition concentration; Cav 3.2 expressing HEK293 cells, FLIPR Calcium 4 fluorescence; read-out: C50
MEASUREMENT_LABEL: log10(IC50) (log10 of the value in nM)
Parameter value (number): base-10 log of IC50 in nM.

Previously resolved entries follow.
MOLECULE | MEASUREMENT_LABEL | OBSERVED_VALUE
Cc1nc(N2Cc3ccc(OCC(F)(F)F)cc3C2)nc(=O)n1Cc1ccc(C(F)(F)F)s1 | log10(IC50) | 2.56
Cc1nc(N2CCc3cc(OS(=O)(=O)C(F)(F)F)ccc3C2)nc(=O)n1Cc1ccc(C(F)(F)F)s1 | log10(IC50) | 1.70
Cc1nc(N2Cc3ccc(OCC(N)=O)cc3C(O)C2)nc(=O)n1Cc1ccc(C(F)(F)F)s1 (stereo not shown) | log10(IC50) | 2.51
COc1ccc2c(c1)CCCN(c1nc(C)n(Cc3ccc(C(F)(F)F)s3)c(=O)n1)C2 | log10(IC50) | 2.68
O=c1nc(N2CCc3cc(OS(=O)(=O)C(F)(F)F)ccc3C2)ncn1Cc1ccc(C(F)(F)F)s1 | log10(IC50) | 1.73
COc1ccc2c(c1)CCN(c1nc(C)n(Cc3ccc(C(F)(F)F)s3)c(=O)n1)CC2 | log10(IC50) | 1.60
O=c1nc(N2CCc3cc(OC(F)F)ccc3C2)ncn1Cc1ccc(C(F)(F)F)s1 | log10(IC50) | 1.53
Cc1ccc2c(n1)CCN(c1nc(C)n(Cc3ccc(C(F)(F)F)s3)c(=O)n1)C2 | log10(IC50) | 3.51

Human T-type calcium channel (Cav 3.2) (Homo sapiens) / log10(IC50) / COc1ccc2c(c1)C(N)CN(c1nc(C)n(Cc3ccc(C(F)(F)F)s3)c(=O)n1)C2 (stereo not shown) : value? 1.43

Human T-type calcium channel (Cav 3.2) (Homo sapiens) / log10(IC50) / CCOC(=O)C1Cc2ccccc2CN1c1nc(C)n(Cc2ccc(C(F)(F)F)s2)c(=O)n1 (stereo not shown) : value? 3.45

Human T-type calcium channel (Cav 3.2) (Homo sapiens) / log10(IC50) / COc1ccc2c(n1)CCN(c1nc(C)n(Cc3ccc(C(F)(F)F)s3)c(=O)n1)C2 : value? 2.49

Human T-type calcium channel (Cav 3.2) (Homo sapiens) / log10(IC50) / O=c1nc(N2CCc3cc(C(F)(F)F)ccc3C2)ncn1Cc1ccc(C(F)(F)F)s1 : value? 1.79

Human T-type calcium channel (Cav 3.2) (Homo sapiens) / log10(IC50) / Cc1nc(N2CCc3c([nH]c4cc(F)ccc34)C2)nc(=O)n1Cc1ccc(C(F)(F)F)s1 : value? 0.81

Human T-type calcium channel (Cav 3.2) (Homo sapiens) / log10(IC50) / COc1ccc2c(c1)CN(c1nc(C)n(Cc3ccc(C(F)(F)F)s3)c(=O)n1)C2 : value? 3.28

Human T-type calcium channel (Cav 3.2) (Homo sapiens) / log10(IC50) / Cc1nc(N2Cc3ccc(OC(F)F)cc3C(O)C2)nc(=O)n1Cc1ccc(C(F)(F)F)s1 (stereo not shown) : value? 1.26

Human T-type calcium channel (Cav 3.2) (Homo sapiens) / log10(IC50) / Cc1nc(N2CCn3c(nc4cc(F)ccc43)C2)nc(=O)n1Cc1ccc(C(F)(F)F)s1 : value? 2.43
